From: patent US20250345350A1

Answer each item with its documented concentration at 1 h.
Test: Pharmacokinetics and biodistribution after 3% PS gel on outer surface of eyelid (Example 26)
Format: in vivo, rabbit
Settings: male, New Zealand White, rabbit, topical; eyelid, 1 h; rabbits, 3% PS gel on outer surface of upper eyelids; read-out: Amount in tissue, Mean ± SEM
Use µM as the unit, but write only the number.

Dear colleague, I am looking for the recorded concentration at 1 h of the following compound: CC1=C(CC(=O)O)c2cc(F)ccc2/C1=C\c1ccc([S+](C)[O-])cc1 (centres unmarked)
3.6

Look up concentration at 1 h: CCOP(=O)(OCC)OCCCCOC(=O)CC1=C(C)/C(=C/c2ccc([S+](C)[O-])cc2)c2ccc(F)cc21 (centres unmarked)
14.2
